// reported melting point for each item listed

COc1cccc([C@H]2O[C@H](CC(=O)NCCc3occc3C(=O)O)C(=O)N(CC(C)(C)CO)c3ccc(Cl)cc32)c1OC    126 to 129 °C

Query: Supply recorded melting point for CCCCS(=O)(=O)NC(=O)C[C@H]1O[C@H](c2cccc(OC)c2OC)c2cc(Cl)ccc2N(CC(C)(C)CO)C1=O here.
Result: 123 to 125 °C

Query: Supply recorded melting point for COc1cccc([C@H]2O[C@H](CC(=O)Nc3ccc(OCC(=O)O)cc3F)C(=O)N(CC(C)(C)CO)c3ccc(Cl)cc32)c1OC here.
Result: 192 to 193 °C (dec.)

Query: Supply recorded melting point for CCOc1cc(NC(=O)C[C@H]2O[C@H](c3cccc(OC)c3OC)c3cc(Cl)ccc3N(CC(C)(C)CO)C2=O)cc2cc(C(=O)O)oc12 here.
Result: 181 to 181.5 °C

Query: Supply recorded melting point for COc1cccc([C@H]2O[C@H](CC(=O)Nc3ccc4[nH]c(C(=O)O)cc4c3)C(=O)N(CC(C)(C)CO)c3ccc(Cl)cc32)c1OC here.
Result: 200.5 to 200.6 °C

Query: Supply recorded melting point for COc1cccc([C@H]2O[C@H](CC(=O)Nc3ccc(F)c(CCC(=O)O)c3)C(=O)N(CC(C)(C)CO)c3ccc(Cl)cc32)c1OC here.
Result: 123 to 125 °C

Query: Supply recorded melting point for COc1cccc([C@H]2O[C@H](CC(=O)Nc3cc(CCC(=O)O)ccc3F)C(=O)N(CC(C)(C)CO)c3ccc(Cl)cc32)c1OC here.
Result: 151 to 152 °C

Query: Supply recorded melting point for COc1cccc([C@H]2O[C@H](CC(=O)Nc3cc(CCC(=O)O)ccc3C)C(=O)N(CC(C)(C)CO)c3ccc(Cl)cc32)c1OC here.
Result: 154 to 155 °C

Query: Supply recorded melting point for COc1cccc([C@H]2O[C@H](CC(=O)NCCCOc3ccc(CC(=O)O)cc3)C(=O)N(CC(C)(C)CO)c3ccc(Cl)cc32)c1OC here.
Result: 125 to 128 °C

Origin of the recorded values: patent US20030078251A1
